Assay system Acetylcholinesterase (Electrophorus electricus); read-out recorded as IC50.
observation-type: IC50 (nM)

> print(dat)
                               smiles.input  result.units  readout.number
1  COc1cc2c(Nc3ccc(Cl)cc3)c([N+](=O)[O-])cnc2cc1OCCC[n+]1ccccc1            nM             920
2  COc1ccc(Nc2c([N+](=O)[O-])cnc3cc(OCCCN(C)Cc4ccccc4)c(OC)cc23)cc1            nM           10900
3  COc1cc2c(Nc3cccc(C)c3)c([N+](=O)[O-])cnc2cc1OCCCN(C)Cc1ccccc1            nM            1860
4  COc1ccccc1Nc1c([N+](=O)[O-])cnc2cc(OCCCN(C)Cc3ccccc3)c(OC)cc12            nM            7900
5  COc1cc2c(Nc3ccccc3C)c([N+](=O)[O-])cnc2cc1OCCCN(C)Cc1ccccc1            nM           10100
6  COc1cc2c(Nc3cccc(Cl)c3)c([N+](=O)[O-])cnc2cc1OCCCN(C)Cc1ccccc1            nM             830
7  COc1cccc(Nc2c([N+](=O)[O-])cnc3cc(OCCCN(C)Cc4ccccc4)c(OC)cc23)c1            nM            1720
8  COc1cc2c(Nc3cccc(C(F)(F)F)c3)c([N+](=O)[O-])cnc2cc1OCCCN(C)Cc1ccccc1            nM            7780
9  COc1cc2c(Nc3ccccc3)c([N+](=O)[O-])cnc2cc1OCCCN(C)Cc1ccccc1            nM             650
